measurement.protocol: RAD1901 levels in plasma, tumor and brain of mice implanted with MCF7 cells (LC-MS/MS)
Format: in vivo
conditions.used: mouse, tumor, oral, 60 mg/kg, T/P ratio (RAD1901 level in tumor v. plasma), maximum
Structures can show the parent of a compound that is named as a salt.
value.kind: Kp at 40 days

Value of measured Kp at 40 days for the entry CCNCCc1ccc(CN(CC)c2cc(OC)ccc2[C@@H]2CCc3cc(O)ccc3C2)cc1 [RAD1901, dihydrochloride] : ≤ 35

====

measurement.protocol: RAD1901 levels in plasma, tumor and brain of mice implanted with MCF7 cells (LC-MS/MS)
Format: in vivo
conditions.used: mouse, tumor, oral, 30 mg/kg, 40 days; read-out: T/P Ratio
Where a name gives a salt, the structure may show the parent alone.
value.kind: Kp at 40 days
Numbers only.

Looking up CCNCCc1ccc(CN(CC)c2cc(OC)ccc2[C@@H]2CCc3cc(O)ccc3C2)cc1 [RAD1901, dihydrochloride] , I see its Kp at 40 days listed as 28.3
